Target: T1, Monomeric human CD48-mmH (human)
T1 construct: also called soluble CD48 expressed with a myc-myc-hexa-histidine C-terminal tag [mmH]
T1 chain: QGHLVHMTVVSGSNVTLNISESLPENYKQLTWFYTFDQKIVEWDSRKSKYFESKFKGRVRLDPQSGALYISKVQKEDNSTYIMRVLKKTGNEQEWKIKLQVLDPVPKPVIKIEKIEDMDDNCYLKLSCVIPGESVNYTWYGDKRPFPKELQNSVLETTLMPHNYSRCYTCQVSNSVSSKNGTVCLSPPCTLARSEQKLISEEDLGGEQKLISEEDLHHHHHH
Assay: SPR (Biacore T100), 25 C, antibody captured by anti-Fc, monomeric CD48-mmH in solution
pKd: −log10 of the molar value.

{"Binder": "H2M1709N (antibody, mouse IgG2, V domains shown, Human variable domains, mouse IgG2 Fc (prefix H2M)) VH: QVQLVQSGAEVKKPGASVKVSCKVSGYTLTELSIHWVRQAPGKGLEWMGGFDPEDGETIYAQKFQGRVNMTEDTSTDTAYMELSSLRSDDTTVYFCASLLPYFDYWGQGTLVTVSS VL: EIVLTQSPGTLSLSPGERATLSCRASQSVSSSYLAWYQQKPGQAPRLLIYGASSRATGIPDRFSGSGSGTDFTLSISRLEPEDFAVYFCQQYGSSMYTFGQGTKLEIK", "pKd": 7.70}
{"Binder": "H4H1775P (antibody, human IgG4, V domains shown, Human IgG4 Fc (prefix H4H)) VH: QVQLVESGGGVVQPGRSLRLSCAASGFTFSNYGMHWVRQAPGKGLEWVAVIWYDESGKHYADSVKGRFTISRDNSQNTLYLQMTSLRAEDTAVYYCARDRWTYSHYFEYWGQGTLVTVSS VL: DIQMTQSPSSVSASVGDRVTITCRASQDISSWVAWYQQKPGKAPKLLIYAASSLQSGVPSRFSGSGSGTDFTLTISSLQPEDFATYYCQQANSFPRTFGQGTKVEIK", "pKd": 9.47}
{"Binder": "H4H1713N (antibody, human IgG4, V domains shown, Human IgG4 Fc (prefix H4H)) VH: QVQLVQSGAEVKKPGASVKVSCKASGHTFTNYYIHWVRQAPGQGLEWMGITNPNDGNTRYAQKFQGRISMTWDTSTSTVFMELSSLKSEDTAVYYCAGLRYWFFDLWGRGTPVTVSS VL: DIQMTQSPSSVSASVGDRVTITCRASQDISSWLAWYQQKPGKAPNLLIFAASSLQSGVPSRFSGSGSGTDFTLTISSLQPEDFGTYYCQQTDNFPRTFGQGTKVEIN", "pKd": 9.05}
{"Binder": "H2M1710N (antibody, mouse IgG2, V domains shown, Human variable domains, mouse IgG2 Fc (prefix H2M)) VH: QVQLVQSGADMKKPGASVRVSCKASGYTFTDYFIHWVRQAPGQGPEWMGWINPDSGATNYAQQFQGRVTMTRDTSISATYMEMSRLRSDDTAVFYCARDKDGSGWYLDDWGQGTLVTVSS VL: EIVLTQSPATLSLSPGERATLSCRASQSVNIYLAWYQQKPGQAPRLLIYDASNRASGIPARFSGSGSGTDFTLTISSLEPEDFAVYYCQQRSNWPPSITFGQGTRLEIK", "pKd": 7.41}
{"Binder": "H4H1772P (antibody, human IgG4, V domains shown, Human IgG4 Fc (prefix H4H)) VH: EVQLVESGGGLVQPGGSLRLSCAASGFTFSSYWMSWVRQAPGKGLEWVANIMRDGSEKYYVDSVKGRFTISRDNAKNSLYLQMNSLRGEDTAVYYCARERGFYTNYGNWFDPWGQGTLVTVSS VL: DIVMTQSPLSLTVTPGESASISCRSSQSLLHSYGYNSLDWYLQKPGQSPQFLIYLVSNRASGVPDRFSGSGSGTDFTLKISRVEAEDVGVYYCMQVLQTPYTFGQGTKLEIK", "pKd": 8.86}
